- assay-notes: AUClast in Sprague-Dawley rat at 35 mg/kg, ip measured upto 24 hrs by LC-MS/MS analysis
- Format: ADME, organism-based
- test-conditions: in vivo
measured-property: AUC(0-t) at 24 h (ng·h/mL)

• COc1cc(-c2cc(-c3ccccc3)nc3c2CC(=O)Nc2ccccc2-3)ccc1OCCOCCOCCC(=O)N[C@H](C(=O)N1C[C@H](O)C[C@H]1C(=O)N[C@@H](C)c1ccc(-c2scnc2C)cc1)C(C)(C)C = 1940

###

- measurement-target: von Hippel-Lindau disease tumor suppressor/Transcriptional coactivator YAP1 (Homo sapiens, UniProt P40337+P46937)
- Sequence (P40337 whole entry, looked up): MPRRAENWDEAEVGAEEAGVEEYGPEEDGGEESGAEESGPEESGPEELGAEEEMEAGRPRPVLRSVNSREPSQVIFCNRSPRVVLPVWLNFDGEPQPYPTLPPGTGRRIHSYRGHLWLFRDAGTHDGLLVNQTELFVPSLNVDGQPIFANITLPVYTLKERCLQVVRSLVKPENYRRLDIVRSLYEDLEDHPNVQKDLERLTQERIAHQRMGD
- Sequence (P46937 whole entry, looked up): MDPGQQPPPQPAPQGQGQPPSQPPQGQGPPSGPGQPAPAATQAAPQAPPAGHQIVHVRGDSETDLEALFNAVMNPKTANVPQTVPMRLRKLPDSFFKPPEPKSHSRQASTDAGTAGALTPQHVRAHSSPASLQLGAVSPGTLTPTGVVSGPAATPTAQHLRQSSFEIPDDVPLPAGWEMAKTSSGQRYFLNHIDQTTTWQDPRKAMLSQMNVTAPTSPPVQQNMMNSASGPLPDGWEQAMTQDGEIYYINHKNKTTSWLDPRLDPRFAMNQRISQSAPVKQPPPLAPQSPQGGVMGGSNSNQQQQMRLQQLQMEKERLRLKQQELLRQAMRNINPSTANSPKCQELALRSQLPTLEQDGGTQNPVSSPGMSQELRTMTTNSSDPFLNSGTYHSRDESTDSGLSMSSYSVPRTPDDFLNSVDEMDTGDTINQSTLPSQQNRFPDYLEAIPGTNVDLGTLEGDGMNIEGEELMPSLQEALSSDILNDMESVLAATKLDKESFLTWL
- assay-notes: PROTAC activity at YAP/VHL in human NCI-H226 cells assessed as induction of YAP degradation 10 uM incubated for 48 hrs by Western blot analysis
- Assay type: cell-based
Activity calls are given as the source filed them. No cut-off for these calls is given here.
measured-property: Activity

- COc1ccc(-c2cc(-c3ccc(OCCCCCC(=O)N[C@H](C(=O)N4C[C@H](O)C[C@H]4C(=O)N[C@@H](C)c4ccc(-c5scnc5C)cc4)C(C)(C)C)cc3)nc3c2CC(=O)Nc2ccccc2-3)cc1OC: inactive
- COc1ccc(-c2cc(-c3ccc(OCCOCCOCCC(=O)N[C@H](C(=O)N4C[C@H](O)C[C@H]4C(=O)N[C@@H](C)c4ccc(-c5scnc5C)cc4)C(C)(C)C)cc3)nc3c2CC(=O)Nc2ccccc2-3)cc1OC: inactive
- COc1ccc(-c2cc(-c3ccc(OCCCCCCCC(=O)N[C@H](C(=O)N4C[C@H](O)C[C@H]4C(=O)N[C@@H](C)c4ccc(-c5scnc5C)cc4)C(C)(C)C)cc3)nc3c2CC(=O)Nc2ccccc2-3)cc1OC: inactive
- COc1ccc(-c2cc(-c3ccc(OCCCCCCCCCC(=O)N[C@H](C(=O)N4C[C@H](O)C[C@H]4C(=O)N[C@@H](C)c4ccc(-c5scnc5C)cc4)C(C)(C)C)cc3)nc3c2CC(=O)Nc2ccccc2-3)cc1OC: inactive
